The values you see were collected from the supplement of paper PMC11451515.

Collected cell viability values appear next to each entry.
tested on: P12-Ichikawa; test: cell viability relative to DMSO control; higher = less cytotoxic; conditions: HPLM + 10% dialyzed FBS; 48 h; 0.569 µM
experimental endpoint: cell viability (%)

| molecule | experimental endpoint | assay result |
| --- | --- | --- |
| COc1cc2nccc(Oc3ccc(NC(=O)C4(C(=O)Nc5ccc(F)cc5)CC4)cc3)c2cc1OC | cell viability | 118 |
| CC(=O)N1CCN(c2ccc(OCc3nn(C)c(C)c3-c3cccc4c(CCCOc5cc(C)c(Cl)c(C)c5)c(C(=O)O)n(Cc5cccnc5)c34)cc2)CC1 | cell viability | 113 |
| COc1nc(-c2ccc3c(c2)OCO3)n(-c2ccc(NC(=O)CSc3ccccc3)cc2)n1 | cell viability | 112 |
| C[C@@H](c1ncncc1F)[C@](O)(Cn1cncn1)c1ccc(F)cc1F | cell viability | 110 |
| O=C1\C=C(/OC2=C1C=CC=C2C3=CC=CC=C3)N4CCOCC4 | cell viability | 94.4 |
| Fc1cc(-c2cccc3ncc(-c4cnn(C5CCNCC5)c4)nc23)cc(F)c1CN1CCOCC1 | cell viability | 108 |
| CCOC(=O)Nc1ccc(NCc2ccc(F)cc2)cc1N | cell viability | 107 |
| CC/1=C/N([C@@H]2C[C@@H](O)[C@H](CO)O2)C(=O)NC1=O | cell viability | 91.7 |
| COc1cc2ncnc(-n3nc(-c4ccccn4)nc3N)c2cc1OC | cell viability | 105 |
| O=C1NC(=O)[C@@H](c2cn3c4c(cccc24)CCC3)[C@@H]1c1c[nH]c2ccccc12 | cell viability | 93.8 |
| COCCOC(=O)C/1=C(C)/NC/2=C(C1C3=CC=CC(=C3)O)/C(=O)CC(C2)C4=C(OC)C=CC=C4 (configuration not stated) | cell viability | 106 |
| O=C(Nc1ccc(OC(F)(F)F)cc1)c1sccc1NCc1ccnc2ccccc12 | cell viability | 41.4 |

====

tested on: SEM cells; experiment: cell viability relative to DMSO control; higher = less cytotoxic; conditions: RPMI 5 mM glucose + 10% FBS; 48 h; 0.00234 µM
experimental endpoint: cell viability (%)

| compound | display unit | assay result |
| --- | --- | --- |
| COc1cc2nccc(Oc3ccc(NC(=O)Nc4cc(C)on4)c(Cl)c3)c2cc1OC | % | 85.2 |
| CC1SC/2=C(C(O)=O)/C(=O)C3=CC(=C(C=C3N12)N4CCN(CC4)C\C5=C(C)\OC(=O)O5)F (centres undefined) | % | 119 |
| C=C(C)[C@@H]1CC[C@]2(C)CC[C@]3(C)[C@H](CC[C@@H]4[C@@]5(C)CC[C@H](O)C(C)(C)[C@@H]5CC[C@]43C)[C@@H]12 | % | 107 |
| Nc1ccccc1NC(=O)c1ccc(CNc2nccc(-c3cccnc3)n2)cc1 | % | 94.4 |

====

test system: NOMO1; assay: cell viability relative to DMSO control; higher = less cytotoxic; conditions: RPMI 5 mM glucose + 10% dialyzed FBS; 48 h; 46.1 µM
Collected cell viability values appear next to each entry.

| molecule | study target | cell viability (%) |
| --- | --- | --- |
| CC(C)(C)/[N+]([O-])=C/c1ccc([S+](=O)([O-])[O][Na])cc1[S+](=O)([O-])[O][Na] | NOMO1 | 120 |
| COCCOC(=O)C/1=C(C)/NC/2=C(C1C3=CC=CC(=C3)O)/C(=O)CC(C2)C4=C(OC)C=CC=C4 (stereo not drawn) | NOMO1 | 85.2 |
| CCCCN(CCCC)CCC(O)c1cc2c(Cl)cc(Cl)cc2c2cc(C(F)(F)F)ccc12 (stereo not drawn) | NOMO1 | 116 |
